# assayed.system: Amine oxidase [flavin-containing] B (Homo sapiens, UniProt P27338)
# Sequence (P27338 whole entry): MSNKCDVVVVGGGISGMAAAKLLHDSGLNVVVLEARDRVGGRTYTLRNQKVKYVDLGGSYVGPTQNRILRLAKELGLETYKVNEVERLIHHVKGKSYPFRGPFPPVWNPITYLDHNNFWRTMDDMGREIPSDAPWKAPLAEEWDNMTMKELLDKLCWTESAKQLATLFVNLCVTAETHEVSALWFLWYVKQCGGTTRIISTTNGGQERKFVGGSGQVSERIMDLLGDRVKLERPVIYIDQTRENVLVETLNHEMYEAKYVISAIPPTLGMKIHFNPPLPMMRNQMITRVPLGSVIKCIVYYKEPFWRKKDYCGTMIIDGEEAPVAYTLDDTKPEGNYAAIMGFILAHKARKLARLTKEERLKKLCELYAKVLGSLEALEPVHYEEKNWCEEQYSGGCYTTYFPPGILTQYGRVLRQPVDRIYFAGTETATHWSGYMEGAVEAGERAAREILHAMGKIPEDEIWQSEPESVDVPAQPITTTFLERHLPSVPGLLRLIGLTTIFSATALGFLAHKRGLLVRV
# assay.remarks: Inhibition of human recombinant MAO-B expressed in baculovirus-infected BTI cells at 10 uM using benzylamine as substrate preincubated with enzyme for 15 mins followed by substrate addition and measured after 20 mins by Amplex Red reagent based fluorescence analysis
# cond: time 35 min
Give yes (1) when the value for inhibition at 10 µM is at least 60%. Give no (0) when it is less.

Inquiry: Please tell me: is the compound "O=C1/C(=C/c2ccc(OCc3ccc(Cl)cc3)cc2)Oc2cc(O)ccc21" at or over 60% in terms of inhibition at 10 µM?
Reply text: no (0)

Inquiry: Quick check, inhibition at 10 µM >= 60%? "COc1cccc(COc2cccc(/C=C3\Oc4cc(O)ccc4C3=O)c2)c1"
Reply text: yes (1)

Inquiry: Could you verify whether the entry "O=C1/C(=C/c2cccc(OCc3cccc(Br)c3)c2)Oc2cc(O)ccc21" shows inhibition at 10 µM of no less than 60%?
Reply text: yes (1)

Inquiry: Form field: inhibition at 10 µM at least 60%? Entry: "O=C1/C(=C/c2cccc(OCc3ccccc3)c2)Oc2cc(O)ccc21"
Reply text: yes (1)

Inquiry: Is inhibition at 10 µM for "O=C1/C(=C/c2cccc(OCc3cccc([N+](=O)[O-])c3)c2)Oc2cc(O)ccc21" at or above 60%?
Reply text: no (0)

Inquiry: Quick check, inhibition at 10 µM >= 60%? "O=C1/C(=C/c2ccc(OCc3ccccc3F)cc2)Oc2cc(O)ccc21"
Reply text: yes (1)

Inquiry: Decide: is the reported value of inhibition at 10 µM for "O=C1/C(=C/c2ccc(OCc3ccccc3Br)cc2)Oc2cc(O)ccc21" equal to or greater than 60%?
Reply text: yes (1)

Inquiry: Say whether "O=C1/C(=C/c2ccc(OCc3ccc(Br)cc3)cc2)Oc2cc(O)ccc21" shows inhibition at 10 µM of 60% or more.
Reply text: no (0)

Inquiry: Would you say "O=C1/C(=C/c2ccc(OCc3ccccc3)cc2)Oc2cc(O)ccc21" shows inhibition at 10 µM at minimum 60%?
Reply text: yes (1)

Inquiry: Dear colleague, could you confirm whether "O=C1/C(=C/c2cccc(OCc3ccc(Cl)cc3)c2)Oc2cc(O)ccc21" has inhibition at 10 µM at or above 60%?
Reply text: yes (1)

Inquiry: Record "O=C1/C(=C/c2ccc(OCc3cccc([N+](=O)[O-])c3)cc2)Oc2cc(O)ccc21" ; criterion: inhibition at 10 µM no lower than 60%. Met?
Reply text: no (0)

Inquiry: Check if inhibition at 10 µM >= 60% (inclusive). Item: "O=C1/C(=C/c2cccc(OCc3ccc(Br)cc3)c2)Oc2cc(O)ccc21"
Reply text: yes (1)

Inquiry: Is reported inhibition at 10 µM greater than or equal to 60% here: "O=C1/C(=C/c2cccc(OCc3ccccc3Br)c2)Oc2cc(O)ccc21"
Reply text: no (0)

Inquiry: # check: inhibition at 10 µM of "O=C1/C(=C/c2ccc(OCc3ccc(F)cc3)cc2)Oc2cc(O)ccc21" is greater than or equal to 60%
Reply text: yes (1)

Inquiry: Could you verify whether the entry "O=C1/C(=C/c2ccc(OCc3cccc(F)c3)cc2)Oc2cc(O)ccc21" shows inhibition at 10 µM of no less than 60%?
Reply text: no (0)

Inquiry: Determine whether measured inhibition at 10 µM meets or exceeds 60% for "O=C1/C(=C/c2ccc(OCc3cccc(Br)c3)cc2)Oc2cc(O)ccc21"
Reply text: yes (1)

Inquiry: Does inhibition at 10 µM meet or surpass 60% for "O=C1/C(=C/c2cccc(OCc3ccccc3Cl)c2)Oc2cc(O)ccc21" ?
Reply text: no (0)

Inquiry: Determine whether this compound has inhibition at 10 µM no lower than 60%: "O=C1/C(=C/c2cccc(OCc3ccccc3F)c2)Oc2cc(O)ccc21"
Reply text: yes (1)
